experiment: Solubility of compound in potassium phosphate buffer at pH 6.8 incubated for 16 to 24 hrs by high-throughput Agilent Rapidfire-MS/MS analysis; type: physicochemical; conditions: time 16-24 hrs
recorded-metric: solubility (µM)
Just the number in µM, nothing appended.

// worked examples, solubility included
compound: CCN1CCCC[C@@H]1COc1ccc2c(c1)CN(C1CCC(=O)NC1=O)C2=O (some centres undefined)
solubility / µM: 450
//
compound: CCN1C[C@H](C)C[C@@H](Oc2ccc3c(c2)CN(C2CCC(=O)NC2=O)C3=O)C1 (stereo in doubt; 10)
solubility / µM: 380
//
compound: CCN1C[C@H](Oc2ccc3c(c2)CN(C2CCC(=O)NC2=O)C3=O)CC[C@@H]1C (some centres undefined)
solubility / µM: 480

Lab note: measured solubility of C[C@@H](Oc1ccc2c(c1)CN(C1CCC(=O)NC1=O)C2=O)[C@H]1CCCCN1C (some centres undefined) was 640
